target: ATP-binding cassette sub-family C member 2 (Rattus norvegicus, UniProt Q63120); assay: TP_TRANSPORTER: inhibition of BQ-485 uptake in bile canalicular membrane vesicles from SD rat; format: functional, cell membranes, Sprague-Dawley, Bile canalicular membrane vesicle
Sequence (Q63120 whole entry): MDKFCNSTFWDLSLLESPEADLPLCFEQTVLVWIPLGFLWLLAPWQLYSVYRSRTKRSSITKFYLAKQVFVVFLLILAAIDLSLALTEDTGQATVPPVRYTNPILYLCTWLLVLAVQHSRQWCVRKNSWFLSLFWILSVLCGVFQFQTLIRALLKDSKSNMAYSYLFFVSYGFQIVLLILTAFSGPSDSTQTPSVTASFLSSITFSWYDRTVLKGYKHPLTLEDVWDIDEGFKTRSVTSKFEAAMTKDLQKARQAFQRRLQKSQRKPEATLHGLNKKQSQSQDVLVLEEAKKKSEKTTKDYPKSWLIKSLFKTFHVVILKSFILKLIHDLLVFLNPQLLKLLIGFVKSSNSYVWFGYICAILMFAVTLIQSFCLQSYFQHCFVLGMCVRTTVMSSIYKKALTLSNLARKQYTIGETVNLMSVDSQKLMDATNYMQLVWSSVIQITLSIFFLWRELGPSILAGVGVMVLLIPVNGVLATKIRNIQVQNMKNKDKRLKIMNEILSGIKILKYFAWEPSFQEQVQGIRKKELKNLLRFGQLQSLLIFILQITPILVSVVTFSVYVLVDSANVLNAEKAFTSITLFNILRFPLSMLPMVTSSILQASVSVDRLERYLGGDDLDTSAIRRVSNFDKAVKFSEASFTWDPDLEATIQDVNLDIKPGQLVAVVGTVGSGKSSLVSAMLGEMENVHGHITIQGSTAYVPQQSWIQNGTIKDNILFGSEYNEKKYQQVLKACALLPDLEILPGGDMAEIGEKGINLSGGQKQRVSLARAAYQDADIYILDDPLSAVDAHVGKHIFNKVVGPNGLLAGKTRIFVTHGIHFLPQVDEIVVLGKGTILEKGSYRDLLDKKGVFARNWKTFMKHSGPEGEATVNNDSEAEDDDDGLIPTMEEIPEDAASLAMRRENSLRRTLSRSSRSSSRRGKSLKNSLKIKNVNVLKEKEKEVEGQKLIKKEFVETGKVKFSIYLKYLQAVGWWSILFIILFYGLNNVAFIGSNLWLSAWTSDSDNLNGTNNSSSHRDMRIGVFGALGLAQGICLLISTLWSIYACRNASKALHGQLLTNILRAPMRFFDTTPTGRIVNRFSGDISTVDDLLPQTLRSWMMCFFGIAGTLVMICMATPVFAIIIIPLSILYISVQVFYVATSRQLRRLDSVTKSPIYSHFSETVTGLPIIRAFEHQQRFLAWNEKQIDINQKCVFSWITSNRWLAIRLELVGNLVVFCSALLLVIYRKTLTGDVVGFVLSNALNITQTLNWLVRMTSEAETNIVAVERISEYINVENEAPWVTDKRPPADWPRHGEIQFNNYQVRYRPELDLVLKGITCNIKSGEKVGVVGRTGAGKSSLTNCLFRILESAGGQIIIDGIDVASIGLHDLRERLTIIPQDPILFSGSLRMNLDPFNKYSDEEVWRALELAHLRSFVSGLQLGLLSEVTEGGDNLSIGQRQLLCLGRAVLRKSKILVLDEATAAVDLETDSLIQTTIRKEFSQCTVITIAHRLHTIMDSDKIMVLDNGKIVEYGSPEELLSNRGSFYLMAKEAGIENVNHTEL
Square brackets hold non-standard residues; d marks the D form. Peptide text beside a SMILES is read from it.
experimentalEndpoint: Ki (µM)
Answers are plain numbers, in µM.

Q. ATP-binding cassette sub-family C member 2 (Rattus norvegicus, UniProt Q63120) / Ki / CC(C)C[C@@H]1NC(=O)[C@@H](C(C)C)NC(=O)[C@@H]2CCCN2C(=O)[C@@H](CC(=O)O)NC(=O)[C@@H](Cc2c[nH]c3ccccc23)NC1=O [BQ-123] (cyclo(L[dW][dD]P[dV])) : value?
A. 84.1
